assayInfo: Inhibition of FLT3 (unknown origin) expressed in mouse BaF3 cells assessed as inhibition of FLT3 ligand-FLT3 dependent cell proliferation incubated for 3 days by ATPlite 1step Luminescence Assay reagent based assay
assayMetric: IC50

Fill in the blank: the reported IC50 of "COc1ncc(F)cc1CNc1ccc(Cc2c[nH]c3ncc(C)cc23)c(F)n1" is ____.
> 10 µM

---

assayInfo: Inhibition of FLT3-ITD (unknown origin) expressed in mouse BaF3 cells assessed as inhibition of FLT3-ITD dependent cell proliferation incubated for 3 days by ATPlite 1step Luminescence Assay reagent based assay
assayMetric: IC50

Fill in the blank: the reported IC50 of COc1ncc(F)cc1CNc1ccc(Cc2c[nH]c3ncc(C)cc23)c(F)n1 [US9096593, P-2049] is ____.
> 10 µM
